Measured values drawn from ChEMBL document CHEMBL3769335 for this set.

experiment: Drug uptake in Plasmodium falciparum 3D7 nucleus; format: ADME
property label: Drug uptake

molecular string: CC(=O)O.COc1ccc(-c2ccc(-c3ccc(C(=N)N)cc3)o2)cc1
result: Not Active

molecular string: CC(=O)O.Cc1ccc(-c2ccc(-c3ccc(C(=N)N)cc3)o2)cc1
result: Not Active

molecular string: CC(=O)O.N=C(N)c1ccc(-c2ccc(-c3ccc(F)cc3)o2)cc1
result: Not Active

* * *

biological target: Ribosyldihydronicotinamide dehydrogenase [quinone] (Homo sapiens, UniProt P16083); assay: Inhibition of human recombinant NQO2 using DCPIPas substrate and NRH as cofactor measured for 1 min by spectrophotometry in the prsence of BSA
Sequence (P16083 whole entry): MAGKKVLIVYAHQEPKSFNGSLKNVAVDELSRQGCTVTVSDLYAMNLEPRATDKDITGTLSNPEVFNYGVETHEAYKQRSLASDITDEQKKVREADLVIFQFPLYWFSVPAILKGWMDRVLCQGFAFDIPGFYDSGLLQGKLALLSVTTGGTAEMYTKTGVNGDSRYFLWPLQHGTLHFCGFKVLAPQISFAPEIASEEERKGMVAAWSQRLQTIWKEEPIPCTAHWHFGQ
Task for the reader: assign each of the following molecules its reported pIC50.
Please report pIC50 as the negative decimal logarithm of the molar concentration, giving only the number.

Looking for the measured pIC50 of CC(C)(C)c1ccc(-c2ccc(-c3ccc(C(=N)N)cc3)o2)cc1 , can you help?
6.15

Looking for the measured pIC50 of N=C(N)c1ccc(-c2ccc(-c3ccccc3)[nH]2)cc1 , can you help?
6.08

Looking for the measured pIC50 of CC(=O)O.N=C(N)c1ccc(-c2ccc(-c3ccc(F)cc3)o2)cc1 , can you help?
6.08

Looking for the measured pIC50 of CCc1ccc(-c2ccc(-c3ccc(C(=N)N)cc3)o2)cc1 , can you help?
6.51

Looking for the measured pIC50 of Cn1c(-c2ccccc2)ccc1-c1ccc(C(=N)N)cc1 , can you help?
6.03

Looking for the measured pIC50 of CC(=O)O.CC(=O)O.N=C(N)c1ccc(-c2ccc(-c3ccc(C(=N)N)cc3)o2)cc1 , can you help?
7.14

Looking for the measured pIC50 of N=C(N)c1ccc(-c2ccc(-c3ccc(Br)cc3)o2)cc1 , can you help?
6.73

Looking for the measured pIC50 of N=C(N)c1ccc(-c2ccc(-c3cccc([N+](=O)[O-])c3)o2)cc1 , can you help?
7.55

* * *

target: Ribosyldihydronicotinamide dehydrogenase [quinone] (Homo sapiens); test: Inhibition of human recombinant NQO2 using DCPIPas substrate and NRH as cofactor measured for 1 min by spectrophotometry in the absence of BSA
Task for the reader: assign each of the following compounds its reported log10 of IC50.
Answers are given as log10 of IC50 in nM.

Looking for the measured log10 of IC50 of N=C(N)c1ccc(-c2ccc(-c3ccccc3)[nH]2)cc1 , can you help?
2.52

Looking for the measured log10 of IC50 of N=C(N)c1ccc(-c2ccc(-c3cccc(F)c3)o2)cc1 , can you help?
1.99

Looking for the measured log10 of IC50 of N=C(N)c1ccc(-c2ccc(-c3ccc(Br)cc3)o2)cc1 , can you help?
1.43

Looking for the measured log10 of IC50 of N=C(N)c1ccc(-c2ccc(-c3ccc([N+](=O)[O-])cc3)o2)cc1 , can you help?
1.18

Looking for the measured log10 of IC50 of N=C(N)c1ccc(-c2ccc(-c3cccc([N+](=O)[O-])c3)o2)cc1 , can you help?
1.16

Looking for the measured log10 of IC50 of Cn1c(-c2ccccc2)ccc1-c1ccc(C(=N)N)cc1 , can you help?
2.61

Looking for the measured log10 of IC50 of N=C(N)c1ccc(-c2ccc(-c3ccccc3)o2)cc1 , can you help?
1.83

Looking for the measured log10 of IC50 of CC(=O)O.N=C(N)c1ccc(-c2ccc(-c3ccc(F)cc3)o2)cc1 , can you help?
2.70

Looking for the measured log10 of IC50 of CC(=O)O.Cc1ccc(-c2ccc(-c3ccc(C(=N)N)cc3)o2)cc1 , can you help?
1.86
